B1: OAS1 (parent)
chain: TPAKSLDKFIEDYLLPDTCFRMQI

variants of: B1; assay: protein stability index of a GFP-peptide fusion (GPS, HEK-293T) (PSI 1-6); higher = more stable; conditions: c terminus: a fixed tail appended;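 also: lentivirally expressed fusions sorted by FACS into six bins by GFP to DsRed ratio, PSI derived from sequencing read proportions per bin multiplied by bin number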
Readout Name: protein stability index

INSERT INTO results (variant_annotation, readout_name, recorded_result) VALUES
  ('D12Y', 'protein stability index', 2.19),
  ('K8A', 'protein stability index', 2.58),
  ('Y13R', 'protein stability index', 1.27),
  ('P2R', 'protein stability index', 2.81),
  ('D12F', 'protein stability index', 2.97),
  ('Q23G', 'protein stability index', 3.25),
  ('L14V', 'protein stability index', 2.83),
  ('T1C', 'protein stability index', 2.39),
  ('K4I', 'protein stability index', 1.9),
  ('T18H', 'protein stability index', 2.22),
  ('A3T', 'protein stability index', 1.64),
  ('P16Q', 'protein stability index', 3.14),
  ('A3R', 'protein stability index', 2.23),
  ('D17H', 'protein stability index', 2.43),
  ('A3W', 'protein stability index', 2.58),
  ('C19E', 'protein stability index', 1.43),
  ('L6D', 'protein stability index', 1.38),
  ('L15P', 'protein stability index', 2.31),
  ('I24R', 'protein stability index', 2.43),
  ('L6R', 'protein stability index', 2.55),
  ('D17M', 'protein stability index', 2.99),
  ('R21V', 'protein stability index', 3.2),
  ('M22S', 'protein stability index', 1.64),
  ('R21M', 'protein stability index', 2.31),
  ('Q23I', 'protein stability index', 2.22),
  ('L14E', 'protein stability index', 1.74),
  ('L15R', 'protein stability index', 3.08),
  ('R21K', 'protein stability index', 2.46),
  ('C19F', 'protein stability index', 2.51),
  ('Q23E', 'protein stability index', 2.6),
  ('F20G', 'protein stability index', 1.74),
  ('L6Q', 'protein stability index', 2.47),
  ('F20T', 'protein stability index', 2.21),
  ('Q23S', 'protein stability index', 5.04),
  ('I10N', 'protein stability index', 1.51),
  ('D12E', 'protein stability index', 2.14),
  ('E11K', 'protein stability index', 2.83),
  ('Q23C', 'protein stability index', 3.21),
  ('R21D', 'protein stability index', 1.56),
  ('L14K', 'protein stability index', 2.37),
  ('Q23A', 'protein stability index', 3.37),
  ('D7K', 'protein stability index', 2.05),
  ('I10V', 'protein stability index', 3.54),
  ('K4P', 'protein stability index', 2.13),
  ('P16E', 'protein stability index', 1.93),
  ('S5D', 'protein stability index', 2.02);
